System: Streptococcus pyogenes SSI-9
Test: Antibacterial activity assay of bead-derived peptides (three concentrations)
Type: cell-based
Set-up: key: +++: inhibition by the 640-fold diluted peptide solution; ++: inhibition by the 160-fold diluted solution; +: inhibition by the 40-fold diluted solution; -: no inhibition
Details: S. pyogenes, bead-derived peptide solution, three concentrations
Where a SMILES comes first, the peptide text is derived from it. [ ]: non-standard residue; d: D form. The star is where a group is joined. NHCH2CH2OH = OCCN*; For = O=C*
measured_property: antibacterial activity

CC(C)C[C@@H](NC(=O)[C@H](Cc1c[nH]c2ccccc12)NC(=O)[C@H](NC(=O)[C@@H](NC(=O)[C@H](NC(=O)[C@H](C)NC(=O)[C@H](NC(=O)[C@H](C)NC(=O)CNC(=O)[C@@H](NC=O)C(C)C)[C@H](C)O)C(C)C)C(C)C)C(C)C)C(=O)N[C@@H](Cc1c[nH]c2ccccc12)C(=O)N[C@H](CC(C)C)C(=O)N[C@@H](Cc1c[nH]c2ccccc12)C(=O)N[C@@H](C(=O)N[C@@H](Cc1c[nH]c2ccccc12)C(=O)NCCO)C(C)C [compound 6843] (For-VGA[dT]A[dV]V[dV]W[dL]W[dL]W[dV]W-NHCH2CH2OH)
-
CC(C)C[C@@H](NC(=O)[C@H](Cc1c[nH]c2ccccc12)NC(=O)[C@@H](CC(C)C)NC(=O)[C@H](Cc1c[nH]c2ccccc12)NC(=O)[C@H](NC(=O)[C@H](Cc1c[nH]c2ccccc12)NC(=O)[C@@H](CC(C)C)NC(=O)[C@@H](NC(=O)[C@H](NC(=O)[C@H](C)NC(=O)[C@H](NC(=O)[C@H](C)NC(=O)CNC(=O)[C@@H](NC=O)C(C)C)C(C)C)C(C)C)C(C)C)C(C)C)C(=O)N[C@@H](Cc1c[nH]c2ccccc12)C(=O)NCCO [compound 8999] (For-VGA[dV]A[dV]V[dL]W[dV]W[dL]W[dL]W-NHCH2CH2OH)
+
